- assayedTarget: Protein cereblon/Androgen receptor (Homo sapiens, UniProt P10275+Q96SW2)
- Sequence (P10275 whole entry, looked up): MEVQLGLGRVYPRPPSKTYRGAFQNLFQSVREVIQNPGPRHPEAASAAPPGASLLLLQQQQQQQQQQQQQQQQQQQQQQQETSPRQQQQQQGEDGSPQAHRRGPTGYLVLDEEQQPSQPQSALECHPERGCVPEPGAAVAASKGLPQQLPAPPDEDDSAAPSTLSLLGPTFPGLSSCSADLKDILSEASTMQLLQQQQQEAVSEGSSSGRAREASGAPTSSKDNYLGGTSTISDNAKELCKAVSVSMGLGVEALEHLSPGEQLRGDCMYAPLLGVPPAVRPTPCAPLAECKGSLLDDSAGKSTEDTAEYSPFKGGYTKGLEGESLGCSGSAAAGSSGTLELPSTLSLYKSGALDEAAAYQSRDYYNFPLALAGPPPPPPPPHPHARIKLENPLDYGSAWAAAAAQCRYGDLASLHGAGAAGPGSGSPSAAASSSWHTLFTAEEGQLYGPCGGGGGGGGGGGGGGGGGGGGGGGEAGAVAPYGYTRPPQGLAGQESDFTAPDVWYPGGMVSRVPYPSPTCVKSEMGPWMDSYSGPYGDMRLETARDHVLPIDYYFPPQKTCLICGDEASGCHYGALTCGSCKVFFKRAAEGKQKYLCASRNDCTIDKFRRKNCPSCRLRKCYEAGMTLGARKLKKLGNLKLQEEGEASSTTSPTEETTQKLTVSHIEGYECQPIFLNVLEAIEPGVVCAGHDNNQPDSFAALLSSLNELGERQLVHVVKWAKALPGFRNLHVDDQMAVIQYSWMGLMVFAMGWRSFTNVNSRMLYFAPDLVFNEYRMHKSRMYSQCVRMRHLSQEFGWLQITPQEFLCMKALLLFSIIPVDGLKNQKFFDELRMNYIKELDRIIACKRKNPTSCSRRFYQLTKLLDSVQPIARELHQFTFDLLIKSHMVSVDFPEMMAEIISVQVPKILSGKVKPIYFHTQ
- Sequence (Q96SW2 whole entry, looked up): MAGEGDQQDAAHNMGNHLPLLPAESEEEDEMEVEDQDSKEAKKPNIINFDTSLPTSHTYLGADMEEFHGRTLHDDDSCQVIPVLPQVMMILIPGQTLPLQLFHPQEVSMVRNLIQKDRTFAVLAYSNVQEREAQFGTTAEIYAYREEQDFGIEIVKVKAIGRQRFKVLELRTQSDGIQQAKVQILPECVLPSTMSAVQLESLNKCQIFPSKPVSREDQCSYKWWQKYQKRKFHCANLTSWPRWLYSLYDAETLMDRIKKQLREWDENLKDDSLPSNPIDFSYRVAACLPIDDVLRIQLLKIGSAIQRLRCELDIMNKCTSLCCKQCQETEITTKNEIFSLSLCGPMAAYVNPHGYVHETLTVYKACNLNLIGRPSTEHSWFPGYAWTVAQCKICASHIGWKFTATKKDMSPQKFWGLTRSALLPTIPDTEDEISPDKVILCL
- protocolDetails: PROTAC activity at full length Androgen receptor/CRBN in human 22Rv1 cells assessed as induction of full length Androgen receptor degradation at 1 uM incubated for 24 hrs by Western blot analysis relative to control
- Format: cell-based
parameterMeasured: Activity (%)
Give the number; % is assumed, so skip it.

Use these answered entries as a reference point.
CC(C)(c1ccc(OCCCNc2cccc3c2C(=O)N(C2CCC(=O)NC2=O)C3=O)cc1)c1ccc(OCC(O)CCl)cc1 (centres undefined)    52.1
CC(C)(c1ccc(OCC(=O)NCCCCCCNc2ccc3c(c2)C(=O)N(C2CCC(=O)NC2=O)C3=O)cc1)c1ccc(OCC(O)CCl)cc1 (centres undefined)    84.1
CC(C)(c1ccc(OCCCCCCNc2ccc3c(c2)C(=O)N(C2CCC(=O)NC2=O)C3=O)cc1)c1ccc(OCC(O)CCl)cc1 (centres undefined)    90
CC(C)(c1ccc(OCC(=O)NCCOCCOCCOCCNc2cccc3c2C(=O)N(C2CCC(=O)NC2=O)C3=O)cc1)c1ccc(OCc2cccc(N3CCOCC3)n2)cc1 (centres undefined)    42.5
CC(C)(c1ccc(OCC(=O)NC2CN(c3cccc4c3C(=O)N(C3CCC(=O)NC3=O)C4=O)C2)cc1)c1ccc(OCC(O)CCl)cc1 (centres undefined)    80.1

Req: // query Activity value for entry CC(C)(c1ccc(OCC(=O)NC2CCN(c3ccc4c(c3)C(=O)N(C3CCC(=O)NC3=O)C4=O)CC2)cc1)c1ccc(OCC(O)CCl)cc1 (centres undefined)
Resp: 75.2

Req: Repeat with CC(C)(c1ccc(OCCCCCCNc2cccc3c2C(=O)N(C2CCC(=O)NC2=O)C3=O)cc1)c1ccc(OCC(O)CCl)cc1 (centres undefined)
Resp: 16.7

---

- protocolDetails: Initial plasma concentration in Sprague-Dawley rat 2 mg/kg, iv by LC-MS/MS analysis
- Assay type: ADME, organism-based
parameterMeasured: C0 (ng/mL)
Please reply with the bare figure in ng/mL and do not write the unit itself.

Req: Return reported C0; argument: CC(C)(c1ccc(OCCNc2cccc3c2C(=O)N(C2CCC(=O)NC2=O)C3=O)cc1)c1ccc(OCc2cccc(N3CCOCC3)n2)cc1 (stereo unspecified)
Resp: 13900

---

- protocolDetails: Metabolic stability in rat liver microsome assessed as half life measured upto 45 mins by LC/MS analysis
- Format: ADME
- conditionContext: liver microsomes
parameterMeasured: half-life
Remember to follow the number with its unit.

Req: Look up half-life: CC(C)(c1ccc(OCCNc2cccc3c2C(=O)N(C2CCC(=O)NC2=O)C3=O)cc1)c1ccc(OCc2cccc(N3CCOCC3)n2)cc1 (stereo unspecified)
Resp: 1.02 h

---

- assayedTarget: Protein cereblon/Androgen receptor (Homo sapiens, UniProt P10275+Q96SW2)
- protocolDetails: PROTAC activity at full length Androgen receptor/CRBN in human 22Rv1 cells assessed as induction of full length Androgen receptor degradation at 5 uM incubated for 24 hrs by Western blot analysis relative to control
- Format: cell-based
parameterMeasured: Activity

CC(C)(c1ccc(OCC(=O)NCCCCNc2ccc3c(c2)C(=O)N(C2CCC(=O)NC2=O)C3=O)cc1)c1ccc(OCC(O)CCl)cc1 (stereo not drawn)    < 10%
CC(C)(c1ccc(OCCCCCCNc2cccc3c2C(=O)N(C2CCC(=O)NC2=O)C3=O)cc1)c1ccc(OCC(O)CCl)cc1 (stereo not drawn)    < 10%

From here, focus on the item given below.
Req: Which Activity reading was recorded for the molecule CC(C)(c1ccc(OCC(=O)NCCNc2ccc3c(c2)C(=O)N(C2CCC(=O)NC2=O)C3=O)cc1)c1ccc(OCC(O)CCl)cc1 (stereo not drawn) ?
Resp: < 10%
